- target.entity: Canine cardiac lipases
- experiment.summary: Myocardial lipase assay
- reported.conditions: triolein emulsion, pH 6.8, read-out: Lipase I50
measurement.label: IC50 (µM)

compound: COc1ccc(NC(=O)Oc2cccc3ccoc23)cc1 [Example 1]
reading: 16

compound: COc1ccc(NC(=O)Oc2cccc3ccoc23)c(OC)c1 [Example 2]
reading: 40

compound: COc1ccc(NC(=O)Oc2cccc3ocnc23)cc1 [Example 4]
reading: 79

compound: O=C(NC1CCCCC1)Oc1cccc2ccoc12 [Example 3, 7-Benzofuranyl N-(cyclohexyl)carbamate]
reading: 10
